Assay: in vitro
Settings: dog, CC50 (cytotoxic concentration 50%), compound-treated uninfected MDCK cells, 48 h, cell viability
test readout: CC50
Note to self: number, then unit, no commentary.

[
  {
    "molecule": "CC1(C)[C@@H](O)CC[C@]2(C)[C@H]3C(=O)C=C4[C@@H]5C[C@@](C)(C(=O)O)CC[C@]5(C)CC[C@@]4(C)[C@]3(C)CC[C@@H]12 [GA, glycyrrhetinic acid, reference compound]",
    "CC50": "7.4 µM"
  }
]

Now consider a different molecule.
I'd like to know its CC50. The molecule in question is CC1(C)[C@@H](OC(=O)CCC(=O)O)CC[C@]2(C)[C@H]3C(=O)C=C4[C@@H]5C[C@@](C)(C(=O)O)CC[C@]5(C)CC[C@@]4(C)[C@]3(C)CC[C@@H]12 [CBX, carbenoxolone, reference compound]
17.8 µM
